Examples of molecules with documented fluorescence lifetime follow.
- assay explanation: solvent given as SMILES
- condition label: in CCCCO
Report as a plain number; the unit ns is understood.

// worked examples, fluorescence lifetime included
Nc1ccc2c(C(F)(F)F)cc(=O)oc2c1; 5.24
CCN(CC)c1ccc2c(-c3ccccc3C(=O)[O-])c3ccc(=[N+](CC)CC)cc-3oc2c1; 3.37
O=C1c2ccccc2-c2cccc(O)c21; 5.22
COC(=O)c1c2ccccc2nc2ccccc12; 0.8

fluorescence lifetime lookup needed for `CCCCCCC(CCCCCC)N1C(=O)c2cccc3c(-c4ccc(OC)cc4)ccc(c23)C1=O` , thanks.
5.18

Then what about the molecule CCN(CC)c1ccc2c(c1)OC1=CC(N(CC)CC)C=CC1[C+]2c1ccccc1C(=O)O (stereo unspecified) ?
2.98

Could you do the same for ClC(Cl)=C1c2ccccc2C(C2(Cl)c3ccccc3C(=C(Cl)Cl)c3ccccc32)c2ccccc21 (stereo unspecified) , please?
12.6

---

- assay explanation: solvent given as SMILES
- condition label: in OCC(F)(F)F
// values below are reported fluorescence lifetime
Number first, unit second: that is the form wanted.

Examples with answers:
CCC1=C(C)C2=Cc3c(I)c(I)cn3[B-](F)(F)[N+]2=C1C; 0.11 ns
C#CCNC1=C2C=CC=[N+]2[B-](F)(F)n2cccc21; 6.34 ns
CC(C)(C)NC1=C2C=CC=[N+]2[B-](F)(F)n2cccc21; 0.125 ns
Cc1oc2c(Cl)cc3c(C)cc(=O)oc3c2c1C; 2.4 ns
Nc1ccccc1C(=O)O; 5.4 ns
O=c1cc(C(F)(F)F)c2cc3c4c(c2o1)CCCN4CCC3; 3.97 ns
CCC1=C(C)C2=C(C)c3c(I)c(I)cn3[B-](F)(F)[N+]2=C1C; 0.147 ns

Turning now to a further record.
For the molecule shown here, `CCC1=C(C)C2=Cc3cc(I)c(I)n3[B-](F)(F)[N+]2=C1C` , give the reported fluorescence lifetime.
0.676 ns

---

- assay explanation: solvent given as SMILES
- condition label: in ClCCl
Assign labels as follows, please: met for fluorescence lifetime below 3 ns; not met for fluorescence lifetime equal to or exceeding 3 ns.

// known answers, use as guide
c1ccc(N(c2ccccc2)c2ccc(-c3ccc4c(c3)C3(c5ccccc5Oc5ccccc53)c3cc(-c5ccc(N(c6ccccc6)c6ccccc6)cc5)ccc3-4)cc2)cc1; met
COc1ccc(-c2c3ccccc3c(-c3ccc(OC)cc3)c3ccccc23)cc1; not met
O=Cc1ccc2ccc3cccc4ccc1c2c34; not met
C[Si]1(C)c2ccc(-c3ccc(N(c4ccccc4)c4ccccc4)cc3)cc2C=Cc2cc(-c3ccc(N(c4ccccc4)c4ccccc4)cc3)ccc21; not met
O=[N+]([O-])c1ccc(-c2nc3c(c4c2-c2ccccc2CC4)-c2ccccc2CC3)cc1; met

Hello, is fluorescence lifetime of the following compound strictly smaller than 3 ns? `O=C1c2cc(F)ccc2-c2cnccc21`
not met

Proceed to `COC(=O)c1cc(=O)n(C)c2cc(-c3ccc4c(c3)OCCO4)sc12`
met

Same read-out for `Cc1c(C(=O)c2ccc3c4cccc5cccc(c6cccc2c63)c54)c2ccc3cccc4c5cccc6ccc1c(c65)c2c34` ?
met

What do you get for `COc1ccc(O)c(-c2nc(C)c3n2CCCC3)c1` ?
met

---

- assay explanation: solvent given as SMILES
- condition label: in CN(C)C=O
recorded metric: fluorescence lifetime (ns)
I only need the number, in ns, no unit after it.

CCCCCCC(CCCCCC)N1C(=O)c2cccc3c(-c4ccc(C#N)cc4)ccc(c23)C1=O; 2.15
CN(C)c1ccc2nc3c(cc2c1)c(-c1ccccc1)nn3-c1ccccc1; 22.3
Nc1ccc2c(C(F)(F)F)cc(=O)oc2c1; 5.22

Would you kindly share the measured fluorescence lifetime for `COc1ccc(-c2ccc(-c3ccc(C#N)s3)s2)cc1` ?
1.44

Same thing, different compound: `O=Cc1ccc2ccc3cccc4ccc1c2c34`
64.8

// query: `Cc1cc(-c2ccc(-n3c4ccccc4c4ccccc43)cc2)nc(-c2ccc(-n3c4ccccc4c4ccccc43)cc2)n1`
7.57

Follow-up item: `CC(C)(C)NS(=O)(=O)c1ccc2c(c1)C(=O)/C(=C1\Sc3ccc(S(=O)(=O)NC(C)(C)C)cc3C1=O)S2`
8.33

Now give it for COC(=O)C(Cc1ccc2oc(-c3ccc(-n4c5ccccc5c5ccccc54)cc3)nc2c1)NC(=O)OC(C)(C)C (configuration not stated) too.
4.97

# repeat for `COc1ccc2c(=O)c3c([nH]c2c1)-c1cc(Cl)ccc1NC3(C)C`
10.4

Now this one: `CCn1c2ccccc2c2c3nsnc3c3c4ccccc4n(CC)c3c21`
1.07

Then what about the compound `Cc1cc(-c2ccc(-c3ccccc3)cc2)nc(-c2ccc(-n3c4ccccc4c4ccccc43)cc2)n1` ?
12.2

Now consider `CN(C)c1ccc(/C=C/c2ccc(-c3ccc(/C=C/c4ccc(N(C)C)cc4)s3)s2)cc1` .
1.15

Cited source: the Deep4Chem optical property database
